- method-notes: Solubility at pH 7.4
- Format: physicochemical
- applied-conditions: buffer
reported-metric: solubility

Please look at this molecule and report its solubility: CC(C)[C@@H]1[C@H](OC(=O)N[C@@H](Cc2ccccc2)[C@H](O)CN2CCN(Cc3cc4sccc4s3)C[C@H]2C(=O)NC(C)(C)C)CCS1(=O)=O
< 0.05 µg/mL

Please look at this molecule and report its solubility: CC(C)[C@@H]1[C@H](OC(=O)N[C@@H](Cc2ccccc2)[C@H](O)CN2CCN(Cc3cc(Br)cs3)C[C@H]2C(=O)NC(C)(C)C)CCS1(=O)=O
< 0.08 µg/mL

Please look at this molecule and report its solubility: CC(C)[C@@H]1[C@H](OC(=O)N[C@@H](Cc2ccccc2)[C@H](O)CN2CCN(Cc3cc4ccsc4s3)C[C@H]2C(=O)NC(C)(C)C)CCS1(=O)=O
0.1 µg/mL

Please look at this molecule and report its solubility: CC(C)[C@@H]1[C@H](OC(=O)N[C@@H](Cc2ccccc2)[C@H](O)CN2CCN(CCc3cccs3)C[C@H]2C(=O)NC(C)(C)C)CCS1(=O)=O
91.3 µg/mL
